folding stability dG reference
B1: r16_88_TrROS_Hall (parent)
chain: EVIELKIKFKTPEQREKLKEIAKKLNAEVVEEKDGEVIIRFKTPEQAERALKEAEKLGAEVEL

- Variants of: B1
- assay-summary: folding stability dG (cDNA display proteolysis); higher = more stable
- details: PBS, room temperature
Value expressed in kcal/mol; do not type the unit.

Look over these answered cases.
EVIELKIQFKTPEQREKLKEIAKKLNAEVVEEKDGEVIIRFKTPEQAERALKEAEKLGAEVEL [K8Q] ... 4.14
EVIELKIKFKTPEQREKLKEIAKMLNAEVVEEKDGEVIIRFKTPEQAERALKEAEKLGAEVEL [K24M] ... 4.4
EVIELKIKFKVPEQREKLKEIAKKLNAEVVEEKDGEVIIRFKTPEQAERALKEAEKLGAEVEL [T11V] ... 4.48

Note folding stability dG for the variant shown: EVIELKIKFKTPEQREKLKEIAKKLNAEVVEEKDGEVIIRFKTKEQAERALKEAEKLGAEVEL [P44K] 4.61
